Reference source: ChEMBL document CHEMBL1201861

- Tested on: MOLT-16;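 also: growth inhibition of human MOLT-16 cells, read out with a cell viability assay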
- TEST_NAME: cells
- Format: functional, cell-based
- APPLIED_CONDITIONS: Homo sapiens
- Description: SANGER: Inhibition of human MOLT-16 cell growth in a cell viability assay.
PROPERTY: IC50 (nM)
Give the quantity in nM, number only.

Here is how some compounds turned out for IC50.
**Query** Tell me measured IC50 for CCc1nc(N)nc(N)c1-c1ccc(Cl)cc1 please.
**Result** 15100

**Query** Tell me measured IC50 for CN(Cc1cnc2nc(N)nc(N)c2n1)c1ccc(C(=O)N[C@@H](CCC(=O)O)C(=O)O)cc1 [METHOTREXATE] please.
**Result** 11.6

**Query** Tell me measured IC50 for CCC(=O)N1CCN(c2ccc(-n3c(=O)ccc4cnc5ccc(-c6cnc7ccccc7c6)cc5c43)cc2C(F)(F)F)CC1 please.
**Result** 16.2

**Query** Tell me measured IC50 for CC(=O)O[C@@]12CO[C@@H]1C[C@H](O)[C@@]1(C)C(=O)[C@H](O)C3=C(C)[C@@H](OC(=O)[C@H](O)[C@@H](NC(=O)OC(C)(C)C)c4ccccc4)C[C@@](O)([C@@H](OC(=O)c4ccccc4)[C@H]21)C3(C)C please.
**Result** 8.27

Then this compound:
**Query** Tell me measured IC50 for CCC1=C[C@@H]2CN(C1)Cc1c([nH]c3ccccc13)[C@@](C(=O)OC)(c1cc3c(cc1OC)N(C)[C@H]1[C@@](O)(C(=O)OC)[C@H](OC(C)=O)[C@]4(CC)C=CCN5CC[C@]31[C@@H]54)C2 please.
**Result** 12.8

====

Listed here are molecules together with their documented pIC50.
- Tested on: EW-22;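 also: growth inhibition of the EW-22 cell line, measured with a cell viability readout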
- TEST_NAME: cells
- Type: functional, cell-based
- APPLIED_CONDITIONS: Homo sapiens
- Description: SANGER: Inhibition of human EW-22 cell growth in a cell viability assay.
pIC50: −log10 of the molar value.

Here is how some molecules turned out for pIC50.
**Query** Tell me measured pIC50 for CCc1nc(N)nc(N)c1-c1ccc(Cl)cc1 please.
**Result** < 4.70

**Query** Tell me measured pIC50 for COc1ccc(C2=N[C@@H](c3ccc(Cl)cc3)[C@@H](c3ccc(Cl)cc3)N2C(=O)N2CCNC(=O)C2)c(OC(C)C)c1 please.
**Result** < 5.10

Further cases:
**Query** Tell me measured pIC50 for CN(C)C/C=C/C(=O)Nc1cc2c(Nc3ccc(F)c(Cl)c3)ncnc2cc1O[C@H]1CCOC1 please.
**Result** < 6.30

**Query** Tell me measured pIC50 for Cc1cc([C@@H](C)Nc2ccccc2C(=O)O)c2nc(N3CCOCC3)cc(=O)n2c1 please.
**Result** < 5.29

**Query** Tell me measured pIC50 for COc1ccc(-c2ccc3c(N4CCOC[C@@H]4C)nc(N4CCOC[C@@H]4C)nc3n2)cc1CO please.
**Result** 6.16

**Query** Tell me measured pIC50 for O=C(c1cc(Cc2n[nH]c(=O)c3ccccc23)ccc1F)N1CCN(C(=O)C2CC2)CC1 please.
**Result** 5.36

====

- Tested on: CA46;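 also: growth inhibition of human CA46 cells, read out by a cell viability assay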
- TEST_NAME: cells
- Assay type: functional, cell-based
- APPLIED_CONDITIONS: Homo sapiens
- Description: SANGER: Inhibition of human CA46 cell growth in a cell viability assay.
PROPERTY: IC50 (µM)
Give the quantity in µM, number only.

**Query** Tell me measured IC50 for C=CCc1cccc(/C=N/NC(=O)CN2CCN(Cc3ccccc3)CC2)c1O [PAC-1] please.
**Result** 2.02

Further cases:
**Query** Tell me measured IC50 for Cn1cncc1[C@@](N)(c1ccc(Cl)cc1)c1ccc2c(c1)c(-c1cccc(Cl)c1)cc(=O)n2C [TIPIFARNIB] please.
**Result** 2.39
